tested on: Fibroblast; assay: Multiplex assay against human fibroblast; type: toxicity, cell-based; conditions: 12 h, 10 µM, compound concentration 10 uM, replicate 1
Population Apoptotic (%) strictly under 70% means Condition met; at 70% or over means Condition not met.

Example results:
[
  {
    "record-smiles": "COc1ccc(S(=O)(=O)N(CCO)c2ccccc2CN(C)C/C=C/c2ccc(Cl)cc2)cc1.O=P(O)(O)O",
    "class-label": "Condition not met"
  },
  {
    "record-smiles": "CCOc1cc(C(=O)N2CCC(N3CCN(C)CC3)CC2)ccc1Nc1ncc2c(n1)N(C1CCCC1)c1ccccc1C(=O)N2C",
    "class-label": "Condition met"
  },
  {
    "record-smiles": "S=C(NCCCc1c[nH]cn1)NCCCN(Cc1ccc(Cl)c(Cl)c1)c1ccc(Br)cn1",
    "class-label": "Condition met"
  }
]

Query block: Lab note: Population Apoptotic (%) threshold 70%. Does this compound come in strictly under it? CCn1cc(-c2ccnc3[nH]c(-c4cccc(CN(C)C)c4)cc23)c(-c2ccc(NC(=O)N(C)C)cc2)n1
Result block: Condition met

Query block: Another: Cc1cn(-c2cc(NC(=O)c3ccc(C)c(Nc4nccc(-c5cccnc5)n4)c3)cc(C(F)(F)F)c2)cn1
Result block: Condition not met

Query block: And the next one, CCc1cccc(CC)c1NC(=O)c1nn(C)c2c1CCc1cnc(Nc3ccc(C(=O)NC4CCN(C)CC4)cc3OC(F)(F)F)nc1-2 ?
Result block: Condition met

Query block: How about this compound: O=C(Nc1cccnn1)N1CCC(=Cc2cccc(Oc3ccc(C(F)(F)F)cn3)c2)CC1
Result block: Condition not met

Query block: For CCN1CCN(Cc2ccc(Nc3ncc(F)c(-c4cc(F)c5nc(C)n(C(C)C)c5c4)n3)nc2)CC1.CS(=O)(=O)O then?
Result block: Condition met

Query block: Query CNC(=O)c1ccc(Nc2nc(OC3CCCC3)c3c(-c4ccc5nc(C)oc5c4)c[nH]c3n2)c(OC)c1 next
Result block: Condition not met

Query block: Another compound: CCN(CC)S(=O)(=O)Nc1cccc(-c2ccc3c(NC(=O)C4CC4)n[nH]c3c2)c1
Result block: Condition not met

Query block: Now this one: O=C(Nc1ccc(-c2ccnc(Nc3ccc(N4CCOCC4)cc3)n2)cc1)[C@@H]1CCCN1
Result block: Condition met

Query block: Next record, please: Cc1ccc2nc(NCCN)c3ncc(C)n3c2c1.O=C(O)C(F)(F)F.O=C(O)C(F)(F)F
Result block: Condition not met
